System: IGROV1 ovarian
Experiment: NCI-60 one-dose screen, 48 h
Conditions: 10 µM unless noted
Compounds without any hit were thinned out: in the full panel of roughly 83,000, 20% have a hit. Calls of active or inactive are those of the source. How the source made its calls: active means growth percent below 10; inactive means the rest.
Bench note: report the call from true (active), false (inactive)

Answer briefly: the call reported for `CC[N+](CCCCCCCCCC[N+](CC)(c1ccccn1)c1ccccn1)(c1ccccn1)c1ccccn1` in this assay.
true

* * *

Tested on: HOP-92 NSCLC
Test: NCI-60 one-dose screen, 48 h
Details: 10 µM unless noted
About 83,000 compounds went through this panel and 20% of them were active in at least one assay; those are over-represented in the sample as a whole. Active and inactive are the calls of the source. The calls were made as follows: active = growth percent below 10; inactive = the rest.
Write down one outcome, taken from active, inactive

Would you please look over these solved cases?
1) O=C(NCCCl)NCCN1c2nc3ccccc3cc2Sc2cc3ccccc3nc21; active
2) CC(C)N(Cc1ccccc1)c1c(S)ssc1=S; active
3) CC(=O)N1N=C(c2ccc3c(c2)OCO3)CC1c1c(C)nn(-c2ccccc2)c1N(C)Cc1ccccc1 (stereo not given); inactive

Record lookup: outcome of this test for `Cc1sc2nc(N3CCCCC3)[nH]c(=O)c2c1C` ?
inactive

// outcome(item) with item = `N#Cc1c(-c2ccccc2)cc(-c2ccccc2)n(CCCC(=O)O)c1=O`
inactive

State the result this test recorded for `COc1ccc(-c2cnc(SCC(=O)Nc3ccc(-c4nc5ccccc5s4)cc3)n2-c2ccc(OC)cc2)cc1` .
inactive

* * *

Test system: NCI-H23 lung
Assay: NCI-60 one-dose screen, 48 h
Conditions: 10 µM unless noted
Description: Growth inhibition of the NCI-H23 human Non-Small Cell Lung tumor cell line is measured as a screen for anti-cancer activity. Cells are grown in 96 well plates and exposed to the test compound for 48 hours. Compounds are tested at a single concentration, which is 10^-5 M for most compounds. The reported endpoint is percent growth (GI% or GIPRCNT), where numbers from 0 - 100% represent growth inhibition, and numbers from -100% - 0 represent cell death. […]
Compounds without any hit were thinned out: in the full panel of roughly 83,000, 20% have a hit. Calls of active or inactive are those of the source. The calls were made as follows: active = growth percent below 10; inactive = the rest.
Result category, one only: label 1 for active, label 0 for inactive

These solved cases illustrate the format of a correct answer.
1) O=C(N/N=C/c1cccc(O)c1)c1ccc(C(F)(F)F)nc1Nc1cccc(C(F)(F)F)c1; label 0
2) O=C1NC(=S)S/C1=C\c1cc(Br)ccc1O; label 0
3) COc1cc(OC)c2c(c1Cl)O[C@]1(C2=O)C(OCc2ccccc2)=CC(=O)C[C@H]1C; label 0
4) COCCOCCOCCOCCOc1ccc2c(c1)C(=O)c1nc3ncccc3c(=O)n1-2; label 1
5) Cc1c2oc3c(C)ccc(C(=O)OC(C)C4NC(=O)C(C(C)C)N(C)C(=O)CN(C)C(=O)C5CCCN5C(=O)C(C(C)C)NC4=O)c3nc-2c(C(=O)OC(C)C2NC(=O)C(C(C)C)N(C)C(=O)CN(C)C(=O)C3CCCN3C(=O)C(C(C)C)NC2=O)c(N)c1=O (centres undefined); label 1

State the result this test recorded for `C[C@H](C(=O)N[C@@H](Cc1ccc(-c2ccccc2)cc1)C(=O)NC1CC(C)(C)N(C)C(C)(C)C1)c1ccc(-c2ccccc2)c(F)c1` .
label 1

For `Nc1ccc2c(c1)Cc1cc(Cl)c(Cl)cc1-2` , what call appears in the results of this test?
label 0

State the result this test recorded for `CCN(CC)CCNCC(=O)Oc1ccc(/C=C/C(=O)CC(=O)/C=C/c2ccc(OC(=O)CNCCN(CC)CC)c(OC)c2)cc1OC` .
label 1

Check the results log: what was the call for `CNNc1ncnc2c1cnn2-c1ccc(S(N)(=O)=O)cc1` ?
label 0

Check the results log: what was the call for O=C1C2C(C(=O)N1CC[Se][Se]CCN1C(=O)C3C(C1=O)[C@H]1C=C[C@@H]3C1)[C@H]1C=C[C@@H]2C1 (some centres undefined) ?
label 1
